- test.system: C-CBL (residues 46-435) (Homo sapiens, UniProt P22681)
- Construct: Purified CBL-B (residues 36-427) and C-CBL (residues 46-435) proteins from baculovirus-infected insect cells; made in house; host or cells: baculovirus-infected insect cells
- protocol.description: Ligand Displacement Assay (LDA), HTRF competitive binding against BODIPY-labeled fluorescent tracer, C-CBL
- details: geometric mean of the number of tests, read-out: C-CBL Ki (nM) GMean
quantity.kind: Ki (nM)
The response must be a number in nM with no trailing unit.

Field: example entries. Status: answers known.
compound=Cc1cc2c(-c3cccc([C@H](c4nncn4C)C4CCC4)c3)n[nH]c2cn1 result_value=525
compound=C[C@H](N[C@H]1CCC(F)(F)C1)c1nc(C(F)(F)F)cc2c(-c3cccc([C@H](c4nncn4C)C4CCC4)c3)n[nH]c12 result_value=3
compound=Cn1cnnc1CC1(c2cccc(-c3n[nH]c4cnc(C5CC5)cc34)c2)COC1 result_value=254
compound="C[C@H](N[C@H]1CCC(F)(F)C1)c1nc(C(F)(F)F)cc2c(-c3cccc(C4(Cc5nncn5C)COC4)c3)n[nH]c12 (single isomer, unassigned)" result_value=1.3
compound="C[C@H](N[C@@H](C)CO)c1nc(C(F)(F)F)cc2c(-c3cccc([C@H](c4nncn4C)C4CCC4)c3)n[nH]c12 (single isomer, unassigned)" result_value=9.1

# Ki of C[C@@H](c1nc(C(F)(F)F)cc2c(-c3cccc([C@H](c4nncn4C)C4CCC4)c3)n[nH]c12)N1CC(C)(O)C1 (single isomer, unassigned) = 22.1

Given item CN(C)Cc1nc(C(F)(F)F)cc2c(-c3cccc(C4(Cc5nncn5C)COC4)c3)n[nH]c12 , the value recorded as its Ki is 115

====

- test.system: CBL-B (residues 36-427) (Homo sapiens)
- Construct: Purified CBL-B (residues 36-427) and C-CBL (residues 46-435) proteins from baculovirus-infected insect cells; made in house; host or cells: baculovirus-infected insect cells
- protocol.description: Ligand Displacement Assay (LDA), HTRF competitive binding against BODIPY-labeled fluorescent tracer, CBL-B
- details: geometric mean of the number of tests, read-out: CBL-B Ki (nM) GMean
quantity.kind: Ki

molecule=C[C@H]1CCCN(Cc2nc(C(F)(F)F)cc3c(-c4cccc(C5(Cc6nncn6C)COC5)c4)n[nH]c23)C1 quantity_kind=Ki result_value="3.6 nM"
molecule=Cn1cnnc1[C@@H](c1cccc(-c2n[nH]c3c(CN4C[C@@H](F)[C@@H](F)C4)nc(C(F)(F)F)cc23)c1)C1CCC1 quantity_kind=Ki result_value="33.9 nM"

Form field Ki, entry Cn1cnnc1[C@@H](c1cccc(-c2n[nH]c3c(CN4C[C@@H](O)[C@@H](O)C4)nc(C(F)(F)F)cc23)c1)C1CCC1 : 5 nM

Input Cn1cnnc1CC1(c2cccc(-c3n[nH]c4c(CN[C@H]5CCC(F)(F)C5)nc(C(F)(F)F)cc34)c2)COC1 . Output Ki: 6.9 nM

====

- test.system: CBL-B (Homo sapiens, UniProt Q13191)
- Construct: endogenous in cells; host or cells: Jurkat HiBit-IL2 reporter cells, C-CBL knocked out by CRISPR
- protocol.description: Jurkat HiBit-IL2 assay (c-CBL KO), reporter cell line expressing CBL-B only
- Assay type: cell-based
- details: C-CBL KO (expressing CBL-B only), geometric mean, Table 16b (further repetition), read-out: C-CBL KO EC50 (nM) GMean
API: label(entry) gives T if the entry's EC50 is strictly smaller than 30 nM; on equality or larger values it gives F.

Record excerpt, results attached:
compound="C[C@H](N[C@@H](C)CO)c1nc(C(F)(F)F)cc2c(-c3cccc([C@H](c4nncn4C)C4CCC4)c3)n[nH]c12 (single isomer, unassigned) [Example D27]" qualitative_label=T
compound="CC(NC[C@H](C)O)c1nc(C(F)(F)F)cc2c(-c3cccc([C@H](c4nncn4C)C4CCCCC4)c3)n[nH]c12 (single isomer, unassigned) [Example C99]" qualitative_label=F
compound="C[C@@H](N[C@H]1CC[C@@H]1O)c1nc(C(F)(F)F)cc2c(-c3cccc([C@H](c4nncn4C)C4CCC4)c3)n[nH]c12 (single isomer, unassigned) [Example D22]" qualitative_label=T

Query compound follows.
Does C[C@@H](c1nc(C(F)(F)F)cc2c(-c3cccc([C@H](c4nncn4C)C4CCC4)c3)n[nH]c12)N1CC[C@H](O)C1 (single isomer, unassigned) [Example D70] have EC50 strictly under 30 nM?
F

====

- test.system: C-CBL (Homo sapiens, UniProt P22681)
- Construct: endogenous in cells; host or cells: Jurkat HiBit-IL2 reporter cells, CBL-B knocked out by CRISPR
- protocol.description: Jurkat HiBit-IL2 assay (CBL-B KO), reporter cell line expressing C-CBL only
- Type: cell-based
- details: CBL-B KO (expressing C-CBL only), geometric mean, Table 16b (further repetition), read-out: CBL-B KO EC50 (nM) GMean
- Text: Jurkat HiBit-IL2 Assay (WT, c-CBL KO, CBL-B KO) The purpose of the Jurkat HiBit-IL2 assay is to evaluate the effect of the inhibition of CBL-B and/or C-CBL on TCR/CD28 stimulated interleukin-2 (IL-2) secretion. The expression of IL-2 can then be accurately measured by HiBit luciferase assay. Further, C-CBL or CBL-B was knocked out by CRISPR respectively in this Jurkat HiBit-IL2 reporter cell line to create reporter cell line expressing CBL-B only (c-CBL knockout (KO)) or C-CBL only (CBL-B KO). […]
quantity.kind: EC50 (nM)
Give the quantity in nM, number only.

// below: answered compounds
compound="CC(N[C@H]1CCC[C@@H]1O)c1nc(C(F)(F)F)cc2c(-c3cccc([C@H](c4nncn4C)C4CCCCC4)c3)n[nH]c12 (single isomer, unassigned)" test_system="C-CBL (Homo sapiens, UniProt P22681)" units_of_measure=nM result_value=909
compound="C[C@@H](NC1CCCC1)c1nc(C(F)(F)F)cc2c(-c3cccc([C@H](c4nncn4C)C4CCC4)c3)n[nH]c12 (single isomer, unassigned)" test_system="C-CBL (Homo sapiens, UniProt P22681)" units_of_measure=nM result_value=32
compound="CC1CN(Cc2nc(C(F)(F)F)cc3c(-c4cccc(C5(Cc6nncn6C)COC5)c4)n[nH]c23)CCC1(F)F (single isomer, unassigned)" test_system="C-CBL (Homo sapiens, UniProt P22681)" units_of_measure=nM result_value=110
compound="C[C@H](NC1(CO)CCC1)c1nc(C(F)(F)F)cc2c(-c3cccc([C@H](c4nncn4C)C4CCC4)c3)n[nH]c12 (single isomer, unassigned)" test_system="C-CBL (Homo sapiens, UniProt P22681)" units_of_measure=nM result_value=563
compound="CC(NC1CCC1)c1nc(C2CC2)cc2c(-c3cccc(C4(Cc5nncn5C)COC4)c3)n[nH]c12 (single isomer, unassigned) [Example H3]" test_system="C-CBL (Homo sapiens, UniProt P22681)" units_of_measure=nM result_value=415

Just so you know, measured EC50 for Cn1cnnc1[C@@H](c1cccc(-c2n[nH]c3c(CN[C@@H]4CCC[C@@H]4O)nc(C(F)(F)F)cc23)c1)C1CCC1 came out at 584

EC50 reading for CC(NCCO)c1nc(C(F)(F)F)cc2c(-c3cccc([C@H](c4nncn4C)C4CCCCC4)c3)n[nH]c12 (single isomer, unassigned) [Example C39] : 615

The compound C[C@@H](c1nc(C(F)(F)F)cc2c(-c3cccc([C@H](c4nncn4C)C4CCC4)c3)n[nH]c12)N1CC[C@@H](O)C1 (single isomer, unassigned) showed EC50 equal to 1710

Notebook: CC[C@H](c1cccc(-c2n[nH]c3c([C@@H](C)NC[C@H](C)O)nc(C(F)(F)F)cc23)c1)c1nncn1C (single isomer, unassigned) , EC50 read as 93

Just so you know, measured EC50 for C[C@H](N[C@@H]1COC[C@@H]1O)c1nc(C(F)(F)F)cc2c(-c3cccc([C@H](c4nncn4C)C4CCC4)c3)n[nH]c12 (single isomer, unassigned) came out at 31

====

Kd for assorted molecules
- test.system: C-CBL (46-435) (Homo sapiens, UniProt P22681)
- Construct: N-terminal biotinylated WT CBL-B (36-427) and C-CBL (46-435) were captured on a streptavidin (SA) coated sensor chip
- protocol.description: Surface Plasmon Resonance (SPR) assay, binding affinity and kinetics, C-CBL
- details: SPR at 10° C., biotinylated C-CBL (46-435) on streptavidin chip; geometric mean; read-out: C-CBL SPR Kd (nM) GMean
# value in nM; strip the unit string

# count of solved cases: 2
molecule=CN1CC[C@H](Oc2nc(C(F)(F)F)cc3c(-c4cccc(C5(Cc6nncn6C)COC5)c4)n[nH]c23)C1 test_system="C-CBL (46-435) (Homo sapiens, UniProt P22681)" quantity_kind=Kd result_value=36.7
molecule=Cn1cnnc1[C@@H](c1cccc(-c2n[nH]c3c(CN4CC(F)C4)nc(C(F)(F)F)cc23)c1)C1CCC1 test_system="C-CBL (46-435) (Homo sapiens, UniProt P22681)" quantity_kind=Kd result_value=265

Field: next molecule
Observed Kd, C-CBL (46-435) (Homo sapiens, UniProt P22681), C[C@@H](NC1CCCC1)c1nc(C(F)(F)F)cc2c(-c3cccc([C@H](c4nncn4C)C4CCC4)c3)n[nH]c12 (single isomer, unassigned) : 6.1

The origin of these recorded values is patent US20260125375A1.
